# study-system: T1, HLA-A*02:01 (peptide-receptive MHC class I monomer after UV-ligand exchange) (human)
# T1 construct: Monomers made with a UV-sensitive peptide that is cleaved by UV and exchanged for the test peptide; captured on streptavidin plates; also called MHC molecules
# procedure-details: UV-ligand exchange + anti-b2m ELISA; exchange yield grade: + >=10%, ++ >=20%, +++ >=50, ++++ >=75%
Provide the recorded peptide exchange yield for the entries that follow.

// ILDEAGVKYFL [peptide ILDEAGVKYFL (SEQ ID NO: 51)] : peptide exchange yield value = 50 to 75%

// SLSSYTPDV [peptide SLSSYTPDV (SEQ ID NO: 73)] : peptide exchange yield value = 50 to 75%

// TLIQFTVKL [peptide TLIQFTVKL (SEQ ID NO: 104)] : peptide exchange yield value = 50 to 75%

// MLFEGLDLVSA [peptide MLFEGLDLVSA (SEQ ID NO: 12)] : peptide exchange yield value = 50 to 75%

// FLLDSAPLNV [peptide FLLDSAPLNV (SEQ ID NO: 117)] : peptide exchange yield value = ≥ 75%

// ILASFMLTGV [peptide ILASFMLTGV (SEQ ID NO: 52)] : peptide exchange yield value = ≥ 75%

// LLIADNPQL [peptide LLIADNPQL (SEQ ID NO: 55)] : peptide exchange yield value = ≥ 75%

// ALTSLELEL [peptide ALTSLELEL (SEQ ID NO: 32)] : peptide exchange yield value = 50 to 75%

// TLLWKLVEV [peptide TLLWKLVEV (SEQ ID NO: 70)] : peptide exchange yield value = 20 to 50%

// NLLKLIAEV [peptide NLLKLIAEV (SEQ ID NO: 96)] : peptide exchange yield value = ≥ 75%

// LLSEPSLLRTV [peptide LLSEPSLLRTV (SEQ ID NO: 125)] : peptide exchange yield value = 50 to 75%

// LLSEEHITL [peptide LLSEEHITL (SEQ ID NO: 53)] : peptide exchange yield value = ≥ 75%

// ILIETKLVL [peptide ILIETKLVL (SEQ ID NO: 14)] : peptide exchange yield value = 50 to 75%

// RMDGAVTSV [peptide RMDGAVTSV (SEQ ID NO: 36)] : peptide exchange yield value = 50 to 75%

// KAYQELLATV [peptide KAYQELLATV (SEQ ID NO: 41)] : peptide exchange yield value = 50 to 75%

// RLLEPAQVQQL [peptide RLLEPAQVQQL (SEQ ID NO: 79)] : peptide exchange yield value = 50 to 75%

// AMYGTKLETI [peptide AMYGTKLETI (SEQ ID NO: 107)] : peptide exchange yield value = ≥ 75%

// VMYDLITEL [peptide VMYDLITEL (SEQ ID NO: 65)] : peptide exchange yield value = 50 to 75%

// FIFEQVQNV [peptide FIFEQVQNV (SEQ ID NO: 71)] : peptide exchange yield value = 50 to 75%

// YQAPYFLTV [peptide YQAPYFLTV (SEQ ID NO: 61)] : peptide exchange yield value = 50 to 75%

// FLPEAPAEL [peptide FLPEAPAEL (SEQ ID NO: 111)] : peptide exchange yield value = 50 to 75%

// GLLDPGMLVNI [peptide GLLDPGMLVNI (SEQ ID NO: 4)] : peptide exchange yield value = 50 to 75%
